- measurementDescription: Log p of the compounds of Table A
quantity: Log p
One number for each entry.

Provide reported Log p for each item, in the same order as listed.
1. CCCN(CC1CC1)C(=O)c1cc(-c2ccnc(Nc3cc(Cl)ccc3F)n2)ccn1
2. COCCN(C)C(=O)c1cc(-c2ccnc(Nc3cc(F)ccc3F)n2)ccn1
3. CCN(C)C(=O)c1cc(-c2ccnc(Nc3cc(Cl)ccc3F)n2)ccn1
4. CCCCN(C)C(=O)c1cc(-c2ccnc(Nc3cccc(C(C)C)c3)n2)ccn1
5. CCCN(CC)C(=O)c1cc(-c2ccnc(Nc3cc(Cl)ccc3F)n2)ccn1

1: 4.20; 2: 2.52; 3: 2.94; 4: 4.04; 5: 3.69

###

- measurementDescription: Log p of the compounds of Table A
- conditionDescription: Table A
Kindly state Log p for each of the entries shown.

Provide reported Log p for each item, in the same order as listed.
1. CCOC1CCC(NC(=O)c2cc(-c3ccnc(Nc4cccc(Cl)c4)n3)ccn2)CC1 (stereo not shown)
2. O=C(NC1CCS(=O)(=O)C1)c1cc(-c2ccnc(Nc3cccc(Cl)c3)n2)ccn1 (stereo not shown)
3. CCCCNC(=O)c1cc(-c2ccnc(Nc3cccc(Cl)c3)n2)ccn1
4. COCCCNC(=O)c1cc(-c2ccnc(Nc3cccc(Cl)c3)n2)ccn1

4.54
2.8
4.31
3.31

###

- measurementDescription: Log p of the compounds of Table A
- conditionDescription: Table A
Kindly state Log p for each of the entries shown.
Give bare numbers.

compound=CNC(=O)c1cc(-c2ccnc(Nc3cccc(Cl)c3)n2)ccn1 quantity="Log p" numericresult=2.94
compound=O=C(NC1CCC1)c1cc(-c2ccnc(Nc3cccc(Cl)c3)n2)ccn1 quantity="Log p" numericresult=4.1
compound="CCC(COC)NC(=O)c1cc(-c2ccnc(Nc3cccc(Cl)c3)n2)ccn1 (stereo not drawn)" quantity="Log p" numericresult=4.02
compound=CC(C)NC(=O)c1cc(-c2ccnc(Nc3cccc(Cl)c3)n2)ccn1 quantity="Log p" numericresult=3.83
compound=O=C(NC1CCCC1)c1cc(-c2ccnc(Nc3cccc(Cl)c3)n2)ccn1 quantity="Log p" numericresult=4.48
compound="CC(CN(C)C)NC(=O)c1cc(-c2ccnc(Nc3cccc(Cl)c3)n2)ccn1 (stereo not drawn)" quantity="Log p" numericresult=1.81
compound=CCC(CC)NC(=O)c1cc(-c2ccnc(Nc3cccc(Cl)c3)n2)ccn1 quantity="Log p" numericresult=4.72
compound="CCC(C)NC(=O)c1cc(-c2ccnc(Nc3cccc(Cl)c3)n2)ccn1 (stereo not drawn)" quantity="Log p" numericresult=4.3

Shifting focus to the compound that follows.
# return recorded Log p for entry `CCCNC(=O)c1cc(-c2ccnc(Nc3cccc(Cl)c3)n2)ccn1` 3.8

###

- measurementDescription: Log p determination of the compounds of Table A
quantity: logP
Numbers only.

# return recorded logP for entry CCN(CC)C(=S)c1cc(-c2ccnc(Nc3cccc(Cl)c3)n2)ccn1 [Compound A391] 3.19

###

- measurementDescription: Log p of the compounds of Table A
Kindly state logP for each of the entries shown.
One number for each entry.

Provide reported logP for each item, in the same order as listed.
1. CCN(CC)C(=O)c1cc(-c2ccnc(Nc3cccc(Cl)c3)n2)ccn1
2. CON=C(C)c1cc(-c2ccnc(Nc3cccc(Cl)c3)n2)ccn1
3. CN(C)C(=O)c1cc(-c2ccnc(Nc3cccc(Cl)c3)n2)ccn1

3.19
4.46
2.5

Provide reported logP for each item, in the same order as listed.
1. CC(=NNCCC#N)c1cc(-c2ccnc(Nc3cccc(Cl)c3)n2)ccn1
2. CC(=O)c1cc(-c2ccnc(Nc3cccc(Cl)c3)n2)ccn1

1. 2.44
2. 3.5

###

- measurementDescription: Log p of the compounds of Table A
Kindly state logP for each of the entries shown.
Numbers only.

molecule="O=C(NCCCN1CCCCCC1=O)c1cc(-c2ccnc(Nc3cccc(Cl)c3)n2)ccn1 [Compound A1]" numericresult=2.98

# return recorded logP for entry CC(C)CCNC(=O)c1cc(-c2ccnc(Nc3cccc(Cl)c3)n2)ccn1 [Compound A19] 4.7

Data provenance: patent US20100137309A1
